In this section we review reported folding stability dG unfold values for a set of sequences.
test.summary: folding stability dG unfold (combined trypsin and chymotrypsin); higher = more stable

Some sequences with recorded folding stability dG unfold:
chain	observed.result
SAGGMGRARLYELEIEVDLHPDETIEGALRRLLGLREDEEILEVEAEVDPVNGKVRIRAVVLVRDPETSAGG [r13_828_TrMRF]	16.1 kJ/mol
SAGGSFGIEIEFHGNGFVIEMFNPETDTINTMRFKFDPDGQFTEMEMETIPIPPPPPPEKDENGKESAGGSA [r2_375_TrROS]	12.3 kJ/mol

folding stability dG unfold in this record for SAGGPISVGEIEHAADNVDNSHQNGDPNEMMELYDEAEEIQDQYEENGDPEVRDEVKKVVERAKRHMGSAGG [r13_137_TrROS] : -1.77 kJ/mol

folding stability dG unfold in this record for SAGGSAGGSAGGDWKMIEFYIPIEPDEPITIEIPDGVRIQIWRVDGYYKVTIMIPLEDISAGGSAGGSAGGS [r10_355_TrROS] : 13.3 kJ/mol

folding stability dG unfold in this record for SAGGKKPKIEVKIEFDEETGKLRIEIRTEDGKLIAEKEIEIDGVLFKVKVIVKDGKLVIEIEAFPKKSAGGS [r16_631_TrROS_Hall] : 15.3 kJ/mol

folding stability dG unfold in this record for MNLSDPVSVAKLKKALEEIKKAIEELKKKGKKIEILAIELNDDSIKITPVTKSEEYIKKKKEEGIEIILLLS [r1_134_JUSTAS] : 5.78 kJ/mol

folding stability dG unfold in this record for SAGSTVEVLEERPLEDGSVLVRVRVDDAAPDGSPVAVVDVLVLPGGEAVMTFPDGTPVRLPLSELGLPPSAG [r5_137_JUSTAS] : -1.33 kJ/mol

folding stability dG unfold in this record for SGMSMAKDAKPIYIEYRDPNGKSYRVTEVKVNEDGTLTITIEYPDSIKTYTLPPNANYPLSSSLILSTVESA [r9_993_JUSTAS] : 6.09 kJ/mol

folding stability dG unfold in this record for SAGGPVLVLVEVEAGFDGRPRLRRLVLPVELRPDGTVDLDAVRRAVEELLPPDWRILRIEVVPPDAPFSAGG [r13_504_TrMRF] : 6.6 kJ/mol

folding stability dG unfold in this record for SAGGGQTIEIKFPVPNENYRVYLMVYDPDKPISVEPQRFDPPDGEVTDKIKLPPDVKIGFMAFPPEDMSAGG [r13_977_TrROS] : 3.44 kJ/mol

folding stability dG unfold in this record for SAGGSETITIEIEINGAKIKLTFTKNEDGTLTVTAEITLPNGKKLRVTMEFDKKTKEWKITSIEPVSAGGSA [r2_402_TrROS_Hall] : > 25.1 kJ/mol

folding stability dG unfold in this record for SAGGSAGGSLNPEKPSVRIRIKVQKPDGSYEEIDIEVPFQDIPDVIDELKKKGYKILSIELEPSAGGSAGGS [r12_986_TrMRF] : 18.3 kJ/mol

folding stability dG unfold in this record for SAGGMELVIAVNSKEEAKKAAEEIKKKTPKGFKLEIEIEEYDLKENVEPEDKDIENIKVYLIKVKLESAGGS [r16_795_TrMRF] : 7.07 kJ/mol

folding stability dG unfold in this record for SATFTLPDGREVEVVSVEYDPETNTVTVLVRDRETGELYVFTFERLPDGEWRIVSRERVRVEPGETVLVSAG [r14_13_TrROS_Hall] : 12.3 kJ/mol

* * *

test.summary: folding stability dG unfold from chymotrypsin proteolysis; higher = more stable
In this section we review reported folding stability dG unfold values for a set of sequences.
Express the result in kcal/mol but write the number alone.

Some sequences with recorded folding stability dG unfold:
chain	folding stability dG unfold (kcal/mol)
SAGGSAGGSPMPILSASADPGPDGTRTLTLRLGDKTVTFTVPASRPALIPAPADSVISLDPAGSAGGSAGGS [r12_373_TrMRF]	-0.467
SAGLDIKKIEFDPNGYLRIEVVYDKNISIKEIIEEIKKLTGATVEKVEVKPTKNGVKAIFILKIDKNLKSAG [r5_774_TrMRF]	3.05
SAGGSASMKIRVYTISLYRPDGESVRDVPIVVPENEPDVDPEALAKAIADELGLVKVEISEEIVPLSAGGSA [r15_333_JUSTAS]	1.4

folding stability dG unfold in this record for SAGGSAGGMELLPDGTLVLTLKAPSLEEALKAAEALAPPGAEVEIRFDEETKEVVIVIKLPPPESAGGSAGG [r6_859_TrROS_Hall] : 4.06

folding stability dG unfold in this record for SAGGGSMEEARRLIEEIAEEVKAKGVKVKVRITFGPDPKVLSIEIFSPDEPIVDNGGPGLVTLTFDIPSAGG [r13_693_JUSTAS] : 2.78

folding stability dG unfold in this record for SAGGSAGGSAGGVKPGDFVLIKLTLTEKYYDPETGELIEEKEVELTILIPKGTSLEELKLSAGGSAGGSAGG [r7_591_TrROS_Hall] : 1.96

folding stability dG unfold in this record for SAGMTVTVTLNYPTPGGPVTVRVLRGDEEEVVTVPPTETLTITVTLDPDSGATIEVFFPDGSSKTYPLGSAG [r5_187_JUSTAS] : 3.76

* * *

test.summary: folding stability dG unfold from chymotrypsin proteolysis; higher = more stable
In this section we review reported folding stability dG unfold values for a set of sequences.
Express the result in kcal/mol but write the number alone.

Some sequences with recorded folding stability dG unfold:
chain	folding stability dG unfold, kcal/mol
SAGPSLEVEVERLPGPYVRITARYSRDVPVEVLVEELRAAAPVEVRVEEDPERDFVTVVAVLPLAPDAGSAG [r5_742_TrMRF]	1.46
SAGGSAGGSAKKKKKKKKYKPKPVKIFKIKLKLKLEKTKDGLKLKIEEIEIEEIATLEKGLSAGGSAGGSAG [r3_397_TrROS_Hall]	2.72
SAGGSAGGNTIMIPLPPNMPLDEVAKELMDAFPDYPIKDVEYERYGDRPMVTVRFPDGWKITIWSAGGSAGG [r6_492_TrROS]	0.818
SAGGSAKMTLIIKVSPEMTKEELEELARKLAEELNVKVEIEYDEETGLATVTIEKDGKKIEIIVERSAGGSA [r15_168_TrROS_Hall]	2.74
SAGGSAGGSKIPPNQFIVRIEIKRRKPNGEKRKHEIIIPVGMPLDTLRDHAPPGYEITDIEVISAGGSAGGS [r12_597_TrROS]	1.8
SAGGSAGGSAGMDIPLTFTAPNADGQPVKVRVEKIIPEKGYLLVRVEYPDDREETFLDPFSAGGSAGGSAGG [r11_742_TrMRF]	-0.167
SAGGSAGGSAGGSEEEIKKLAAEGGSFTATIPVVTPDGKPVEKTVTVEVKTDPKTGKLVSAGGSAGGSAGGS [r10_346_JUSTAS]	0.906
SAGGSAGGSANWYIRIHSPNGQPIWFPMKIKNVTPKGGEIEFKMRNPNGREMPFRVEIFPLESAGGSAGGSA [r18_163_TrROS]	1.16

folding stability dG unfold in this record for SAGGSAKMVLVKIKVEGMSVEEVKKLLEEAGAKVVKIDEEKKVIIVEVSPEKAEELAKKLGFEVEVSAGGSA [r15_731_TrROS_Hall] : 3.42

folding stability dG unfold in this record for SMEILEMDIEEILSLLPEDIHPDVPYTLTVPGLEIRILDVAPVREEEGGPRPTTVIEVFLPDGPVVFPLESA [r9_279_TrMRF] : 1.26

folding stability dG unfold in this record for SAGGSAGGSAGGSKETVKIAIKVKPGEKEITIEIKGKKYKVKVEEKDGLLYLTVSKEDLSAGGSAGGSAGGS [r4_430_TrROS_Hall] : 3.44

folding stability dG unfold in this record for SQTIRLELKNPDGRKIRIEIPVQRNPGNGYYYVSVKIEYYDPNGKPKERPITAPFNSPEDAEDQAREALRSA [r9_337_TrROS] : 2.06

folding stability dG unfold in this record for SAGGSAGGSTVEEIADFFKQQGFTDAEINVMPPPNGRRYVTVRFEMKEPNGNKHKMNFSIWIPSAGGSAGGS [r12_246_TrROS] : 1.99

* * *

test.summary: folding stability dG unfold from trypsin proteolysis; higher = more stable
In this section we review reported folding stability dG unfold values for a set of sequences.
Express the result in kcal/mol but write the number alone.

chain	experimental.readout	observed.result
SAMMVVYYDPETGELVLVDPSEIPPELVEKGIEPVRLVPLRILVEVESEEEAEELARLFPDLVEVSLNPSAG [r14_638_TrMRF]	folding stability dG unfold	1.97
SAGKIEVKKNYVVIEIKVEGKELKLVIKVKTKEEQEKALELVKKLEEELKKEGLEVEVKVEVFKEGEEVSAG [r5_823_TrROS_Hall]	folding stability dG unfold	2.2
SADSVPIKLTFTFEVPEEIYEAAVKAIEDIFKDLGLEVEFEAKAEPGEEGVKVTVELNLTIPPNNPNLISAG [r14_76_TrMRF]	folding stability dG unfold	2.44

Consider now this further sequence.
folding stability dG unfold in this record for SAGGGVTITLKTADGKTLTLEIPGLTSVTVEPDKVTVEFEIPDYRITITFNPSTGTVEIKISHPDEPESAGG [r13_392_TrMRF] : 3.37

Values were extracted from the supplement of paper PMC12764529.
